Molecular target: T1, HLA-A2 (human), P04439
T1 chain: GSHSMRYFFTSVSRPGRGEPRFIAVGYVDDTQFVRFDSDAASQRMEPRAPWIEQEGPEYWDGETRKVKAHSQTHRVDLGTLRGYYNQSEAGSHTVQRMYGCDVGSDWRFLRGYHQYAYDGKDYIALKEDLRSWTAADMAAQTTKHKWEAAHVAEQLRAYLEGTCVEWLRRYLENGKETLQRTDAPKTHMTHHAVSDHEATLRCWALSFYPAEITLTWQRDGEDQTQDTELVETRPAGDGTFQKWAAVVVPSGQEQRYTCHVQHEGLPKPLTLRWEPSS
Assay: competitive binding assay (flow cytometry)
Settings: modification not given
A collection of binders and their measured IC50

Examples from the recorded data:
>  <Binder>
ALLVMCIVL [FAPα18-26 (…)]

>  <IC50>
650 µM

$$$$
>  <Binder>
KLLEENKEV [FAPα486-494 (487L, 494V) (…)]

>  <IC50>
25.4 µM

$$$$
>  <Binder>
ALVCYGPGL [FAPα463-471 (471L) (…)]

>  <IC50>
3.9 µM

$$$$

What does the data say about its IC50? Entry: ALVCYGPGV [FAPα463-471 (471V) (…)]
4.6 µM

Queued: VLALLVMCI [FAPα16-24 (…)]
150 µM

Queued: KLLEENKEL [FAPα486-494 (487L) (…)]
21.3 µM
